Measured values drawn from ChEMBL document CHEMBL1158870 for this set.

Could you please report measured GI50 for the items listed next?
- Test system: Malme-3M
- procedure details: Cytotoxicity against human MALME-3M cells by SRB assay
- Format: functional
Please reply with the bare figure in µM and do not write the unit itself.

INPUT: Specify reported GI50 for the compound shown: `CC(=O)OC[C@H]1O[C@@H](O[C@@H]2C[C@H]3C(C)(C)[C@H](OC(C)=O)CC[C@]3(C)[C@H]3CC[C@@H]4[C@]5(CC[C@@]4(C)[C@@]32C)O[C@@H]([C@H](O)C(C)(C)O)C[C@@H]5C)[C@H](O)[C@@H](O)[C@@H]1O`
OUTPUT: 10.2

INPUT: Specify reported GI50 for the compound shown: `COC(C)(C)[C@@H](O)[C@H]1C[C@H](C)[C@@]2(CC[C@]3(C)[C@@H]2CC[C@@H]2[C@@]4(C)CC[C@@H](OC(C)=O)C(C)(C)[C@@H]4C[C@@H](O[C@@H]4O[C@H](COC(C)=O)[C@@H](O)[C@H](O)[C@H]4O)[C@]23C)O1`
OUTPUT: 11.2

INPUT: Specify reported GI50 for the compound shown: `CC(=O)OC[C@H]1O[C@@H](O[C@@H]2C[C@H]3C(C)(C)[C@H](OC(C)=O)CC[C@]3(C)[C@H]3CCC4=C([C@@H](C)C[C@@H](O)[C@H](O)C(C)(C)O)CC[C@@]4(C)[C@@]32C)[C@H](O)[C@@H](O)[C@@H]1O`
OUTPUT: 16.6

INPUT: Specify reported GI50 for the compound shown: `COC(C)(C)[C@@H](O)[C@H](O)C[C@H](C)C1=C2CC[C@@H]3[C@@]4(C)CC[C@@H](OC(C)=O)C(C)(C)[C@@H]4C[C@@H](O[C@@H]4O[C@H](COC(C)=O)[C@@H](O)[C@H](O)[C@H]4O)[C@@]3(C)[C@]2(C)CC1`
OUTPUT: 15.1
